# System: DU-145 prostate
# ASSAY: NCI tumour cell line growth inhibition, 48 h
# Lookup of reported GI50 keyed by entry

Lab note: measured GI50 of COc1cc(/C=C2\CC3C4CC=C5C[C@@H](OC(C)=O)CC[C@]5(C)C4CC[C@]3(C)C2=O)ccc1OCCN1CCCCC1 (stereo not given in full) was 5.18 µM

Lab note: measured GI50 of CCOC(=O)c1cc(C(=O)c2ccc(OC)cc2)n2ccc(/C=C/c3cc[n+](CC(=O)c4ccc(OC)cc4)cc3)cc12 was 2.05 µM

Lab note: measured GI50 of O=c1c2ccccc2sc2c(NCCCNCCO)nc3ccccc3c12 was 1.6 µM

Lab note: measured GI50 of CNC(=O)c1c(C)oc2cc(Oc3ncnc4cc(OC)c(OC)cc34)ccc12 was > 100 µM

Lab note: measured GI50 of COc1cc2c(cc1OC(C)C)[C@H](c1ccc(Cl)cc1)N(c1ccc(N(C)CC3CCC(N4CCN(C)C(=O)C4)CC3)cc1)C(=O)C2 (stereo not given in full) was 5.3 µM

---

# System: 786-0 renal
# ASSAY: NCI tumour cell line growth inhibition, 48 h
# Lookup of reported TGI keyed by entry
Only the number, expressed in µM, is required.

# count of solved cases: 8
NS(=O)(=O)OC[C@H]1C[C@@H](Nc2ccnc3cc(-c4cccc(SC(F)(F)F)c4)nn23)[C@H](O)[C@@H]1O: 0.19
O=c1oc2ccc(I)cc2c(=O)n1-c1ccc(Br)cc1F: 7.12
Cc1cc(NC2=CC(=O)C(=O)c3ccccc32)no1: 30.4
COc1ccc(C(=O)C(CN(C)C)CN(C)C)cc1: 16.1
C=C(c1ccc(OC)c(/C=C/C(=O)c2ccc3c(c2)OCO3)c1)c1cc(OC)c(OC)c(OC)c1: 5.61
OC1(C(Sc2cc(C(F)(F)F)cc(C(F)(F)F)c2)Sc2cc(C(F)(F)F)cc(C(F)(F)F)c2)C=CCCC1 (centres undefined): 8.09
COc1ccc2c(c1)C(=O)c1c-2n(CCCN(C)C)c(=O)c2ccccc12: 2.3
CC[C@H](C)[C@H](NC(=O)[C@H]1CCCCN1C)C(=O)N(C)[C@H](C[C@@H](OC(C)=O)c1cccc(C(=O)N[C@@H](Cc2ccccc2)C[C@H](C)C(=O)OC)n1)C(C)C: 18.3

Lab note: measured TGI of COc1ccc2c3c1OC1C(F)C=CC4(O)C(C2)NCCC314 (centres undefined) was 3.27

---

# Lookup of reported TGI keyed by entry
# Test system: NCI-H460 lung
# ASSAY: NCI tumour cell line growth inhibition, 48 h

# count of solved cases: 2
O=c1ccc2ccc(OP(=O)(O)O)cc2o1: > 100 µM
N#C/C(=C\c1cc(O)cc(O)c1)C(N)=O: > 100 µM

Now take the following compound into account.
Lab note: measured TGI of C[C@H](C1CC(C)(O)C(C)(O)C(O)O1)[C@H]1CC[C@H]2[C@@H]3[C@@H]4O[C@@H]4[C@@]4(O)CC=CC(=O)[C@]4(C)[C@H]3CC[C@]12C (stereo partly drawn) was > 50 µM

---

# Lookup of reported TGI keyed by entry
# System: LOX IMVI melanoma
# ASSAY: NCI tumour cell line growth inhibition, 48 h

C[C@H]1C[C@@H]2[C@H]([C@@H](O)C[C@@]3(C)[C@H]2CC[C@]3(O)C(=O)CO)[C@@]2(C)C=CC(=O)C=C12: > 100 µM
CC(=O)OCCn1cnc2c(NCC=C(C)C)ncnc21: > 100 µM
Cc1c(C)c2ccc3oc4ccccc4c3c2oc1=O: > 100 µM
COc1ccc(C(CC2(c3ccc(OC)cc3)SCCCS2)NC(C)=O)cc1 (stereo not given): > 100 µM
Cc1ccc([N+](=O)[O-])cc1S(=O)(=O)Nc1ccc(C2=NN(S(=O)(=O)c3cc([N+](=O)[O-])ccc3C)C(c3ccccc3)C2)cc1 (stereo not given): > 100 µM

Lab note: measured TGI of Nc1nc(Cl)cc(NCC2(O)CCC2)n1 was > 100 µM

Lab note: measured TGI of Cc1ccc(C)n1-c1ccccc1C1C=Cn2c(=O)nnc3c(OC(C)C)c(OC(C)C)c(O)c1c32 (stereo not given) was > 100 µM

Lab note: measured TGI of COC(COC(N)=O)C1=C(N2CC2)C(=O)C(C)=C(N2CC2)C1=O (stereo not given) was 0.326 µM

Lab note: measured TGI of COc1ccc2c(c1)C(=O)c1c-2n(CCCN(C)C)c(=O)c2ccccc12 was 1.01 µM

Lab note: measured TGI of COc1cc(/C=C2\CC3C4CC=C5C[C@@H](OC(C)=O)CC[C@]5(C)C4CC[C@]3(C)C2=O)ccc1OCCN1CCCCC1 (stereo not given in full) was 3.31 µM

---

# Lookup of reported GI50 keyed by entry
# Test system: A549 NSCLC
# ASSAY: NCI tumour cell line growth inhibition, 48 h

# count of solved cases: 5
NS(=O)(=O)OC[C@H]1C[C@@H](Nc2ccnc3cc(-c4cccc(SC(F)(F)F)c4)nn23)[C@H](O)[C@@H]1O: 206 nM
O=c1c2ccccc2sc2c(NCCCNCCO)nc3ccccc3c12: 1530 nM
O=C1Nc2c(ccc(Cl)c2Cl)/C1=C/c1cc(Br)c(O)c(Br)c1: 7700 nM
Clc1c(Cl)[n+](Cc2ccc3ccccc3c2)cn1Cc1ccc2ccccc2c1: 3320 nM
CN[C@H]1CN(c2ccc3c(=O)c(C(=O)O)cn(-c4nccs4)c3n2)C[C@@H]1OC: 511 nM

Bench note, A549 NSCLC: entry Cc1ccc(O)c(NC(=O)c2cccc(Nc3ccnc(C(F)(F)F)c3)c2)c1 , its GI50 = 5090 nM

Bench note, A549 NSCLC: entry C[C@@H](Oc1cc(-n2cnc3ccc(OC4CCN(C)CC4)cc32)sc1C(N)=O)c1ccccc1Cl , its GI50 = 18.3 nM

Bench note, A549 NSCLC: entry CC1Cc2c(Cl)ncnc2N(C)c2ccc(Cl)cc21 (stereo not given) , its GI50 = 378 nM

Bench note, A549 NSCLC: entry CCCCCCCCCCCCCCCC1=NCC[N+]1(CCO)CCO , its GI50 = 2280 nM

Bench note, A549 NSCLC: entry Cc1onc(-c2ccccc2)c1C(=O)N/N=C/c1cc(Cl)cc(Cl)c1O , its GI50 = 5070 nM

---

# Lookup of reported TGI keyed by entry
# Test system: NCI-H23 lung
# ASSAY: NCI tumour cell line growth inhibition, 48 h
Only the number, expressed in µM, is required.

O=c1oc2ccc(I)cc2c(=O)n1-c1ccc(Br)cc1F: 3.99
CN[C@H]1CN(c2ccc3c(=O)c(C(=O)O)cn(-c4nccs4)c3n2)C[C@@H]1OC: 2.01
C=C(Cl)C(Cl)(CBr)CCC(Br)C(C)(C)Br (stereo not given): 31.5

Lab note: measured TGI of COc1cc2c(cc1OC(C)C)[C@H](c1ccc(Cl)cc1)N(c1ccc(N(C)CC3CCC(N4CCN(C)C(=O)C4)CC3)cc1)C(=O)C2 (stereo not given in full) was 13.2

---

# System: UACC-257 melanoma
# ASSAY: NCI tumour cell line growth inhibition, 48 h
EXPERIMENTAL_READOUT: TGI

Lab note: measured TGI of C[C@@H]1C[C@H]2[C@@H]3CCC4=CC(=O)C=C[C@]4(C)[C@@]3(F)[C@@H](O)C[C@]2(C)[C@@]1(O)C(=O)CO was > 100 µM

---

# Lookup of reported TGI keyed by entry
# System: SF-268 CNS
# ASSAY: NCI tumour cell line growth inhibition, 48 h
Only the number, expressed in µM, is required.

NS(=O)(=O)OC[C@H]1C[C@@H](Nc2ccnc3cc(-c4cccc(SC(F)(F)F)c4)nn23)[C@H](O)[C@@H]1O: 0.0711

Bench note, SF-268 CNS: entry CC1=C(C(=O)OC2CC3CCC2(C)C3(C)C)C2Nc3ccccc3N(C)C2O1 (stereo not drawn) , its TGI = 22.5

Bench note, SF-268 CNS: entry COc1ccc2c(c1)Cc1c(NCCN(C)C)ccc(C(=O)NCCCN(C)CCCNC(=O)c3ccc(NCCN(C)C)c4c3Nc3ccc(OC)cc3C4)c1N2 , its TGI = 0.327

Bench note, SF-268 CNS: entry COc1ccccc1Nc1cc(O)c2c(=O)cc(-c3ccccc3)oc2c1 , its TGI = 48.2

---

# System: SK-OV-3 ovarian
# ASSAY: NCI tumour cell line growth inhibition, 48 h
# Lookup of reported TGI keyed by entry

# count of solved cases: 8
CCOC(=O)c1cnc(N(C)C)nc1SC(=N)N: > 100 µM
C=C[C@@H](C)[C@]1(C(=O)OC)CCCC12OCCO2: > 100 µM
CC[C@H](C)[C@H](NC(=O)[C@H]1CCCCN1C)C(=O)N(C)[C@H](C[C@@H](OC(C)=O)c1cccc(C(=O)N[C@@H](Cc2ccccc2)C[C@H](C)C(=O)OC)n1)C(C)C: > 25 µM
O=C1Nc2c(ccc(Cl)c2Cl)/C1=C/c1cc(Br)c(O)c(Br)c1: 30.4 µM
CC[C@]12C=CCN3CC[C@@]4(c5cc(N=O)c(OC)cc5N(C)[C@H]4[C@@](O)(C(=O)OC)[C@@H]1OC(C)=O)[C@@H]32: > 100 µM
CCOC(=O)c1cc(C2CCN(c3ccccc3)C2=O)c(/C(O)=C/C(C)=O)[nH]1 (stereo not drawn): > 100 µM
O=C(C=P(c1ccccc1)(c1ccccc1)c1ccccc1)c1ccc(-c2cccs2)cc1: 20.6 µM
Oc1c(Br)cc(/C=C/c2ccnc(/C=C/c3cc(Br)c(O)c(Br)c3)c2)cc1Br: > 100 µM

Now take the following compound into account.
Lab note: measured TGI of OC(CNc1ccnc2cc(Cl)ccc12)CNc1ccnc2cc(Cl)ccc12 was 3.89 µM
